Cited source: patent EP4796538A1

biological target: RET (G810S/M918T) (Homo sapiens, UniProt P07949, G810S/M918T); construct: purchased Reaction Biology Corp; experiment: Kinase panel inhibition, radiolabeled [γ-33P] ATP (Reaction Biology Corp); assay type: biochemical; settings: compound at 10 uM; ATP 1 µM; Data 2; read-out: % Enzyme Activity (relative to DMSO controls) RET (G810S/M918T) Data 2
Sequence (P07949 29-1114 G810S/M918T): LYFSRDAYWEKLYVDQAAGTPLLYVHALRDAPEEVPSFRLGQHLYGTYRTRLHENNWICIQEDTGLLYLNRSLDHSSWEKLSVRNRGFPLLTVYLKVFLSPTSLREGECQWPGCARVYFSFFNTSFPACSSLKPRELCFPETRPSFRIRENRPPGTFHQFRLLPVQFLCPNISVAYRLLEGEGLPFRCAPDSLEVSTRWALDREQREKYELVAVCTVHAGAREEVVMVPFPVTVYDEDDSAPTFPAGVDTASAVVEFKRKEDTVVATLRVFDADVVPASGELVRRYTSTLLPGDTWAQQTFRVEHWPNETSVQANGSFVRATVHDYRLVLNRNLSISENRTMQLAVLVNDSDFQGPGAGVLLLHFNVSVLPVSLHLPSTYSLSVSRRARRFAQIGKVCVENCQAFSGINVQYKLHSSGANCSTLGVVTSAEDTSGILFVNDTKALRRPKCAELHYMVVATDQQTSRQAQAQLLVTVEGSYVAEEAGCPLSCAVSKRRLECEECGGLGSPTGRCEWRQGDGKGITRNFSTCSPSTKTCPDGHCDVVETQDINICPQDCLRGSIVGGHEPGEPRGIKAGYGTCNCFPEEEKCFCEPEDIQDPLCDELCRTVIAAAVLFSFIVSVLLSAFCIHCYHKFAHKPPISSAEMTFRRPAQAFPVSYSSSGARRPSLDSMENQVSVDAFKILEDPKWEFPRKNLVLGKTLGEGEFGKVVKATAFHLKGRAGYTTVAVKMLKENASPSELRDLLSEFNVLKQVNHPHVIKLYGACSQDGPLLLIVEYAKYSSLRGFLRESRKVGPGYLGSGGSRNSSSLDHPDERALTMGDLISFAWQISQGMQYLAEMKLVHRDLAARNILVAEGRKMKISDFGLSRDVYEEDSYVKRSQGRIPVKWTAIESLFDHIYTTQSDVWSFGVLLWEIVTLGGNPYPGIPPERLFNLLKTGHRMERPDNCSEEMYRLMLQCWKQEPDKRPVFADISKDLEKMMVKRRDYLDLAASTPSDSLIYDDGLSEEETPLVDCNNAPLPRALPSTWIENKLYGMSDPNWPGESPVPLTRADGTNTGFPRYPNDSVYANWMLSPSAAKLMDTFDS
# key: entry, value: remaining activity at 10 µM
Provide the reading as a plain figure in %.

Would you please look over these solved cases?
Input: What remaining activity at 10 µM value was documented for this molecule, O=C(Nc1cc(-c2ccc(N3CC(Oc4cccc(F)c4)C3)nc2)c2nccnc2c1)c1ccccn1 [Example 9] ?
Output: 50

Input: What remaining activity at 10 µM value was documented for this molecule, CC(C)CNc1cc(-c2ccc(N3CC(Oc4cccc(F)c4)C3)nc2)c2nccnc2c1 [Example 7] ?
Output: 4.26

Input: What remaining activity at 10 µM value was documented for this molecule, CCCNc1cc(-c2ccc(N3CC(Oc4cccc(F)c4)C3)nc2)c2nccnc2c1 [Example 4] ?
Output: 0.04

Input: What remaining activity at 10 µM value was documented for this molecule, CC(C)CNc1cc(-c2ccc(N3CC[C@H](NC(=O)c4ccccc4F)C3)nc2)c2nccnc2c1 [Example 16] ?
Output: 3.22

Input: What remaining activity at 10 µM value was documented for this molecule, O=C(Nc1cc(-c2ccc(N3CC[C@H](NC(=O)c4ccccc4F)C3)nc2)c2nccnc2c1)c1ccco1 [Example 17] ?
Output: 11.9

Others:
Input: What remaining activity at 10 µM value was documented for this molecule, CCN1CCN(c2ccc(-c3cc(N)cc4nccnc34)cn2)CC1 [Example 21] ?
Output: 63.3

Input: What remaining activity at 10 µM value was documented for this molecule, CCNc1cc(-c2ccc(N3CCN(Cc4ccc(Br)cc4)CC3)nc2)c2nccnc2c1 [Example 26] ?
Output: 1.3

Input: What remaining activity at 10 µM value was documented for this molecule, Nc1cc(-c2ccc(N3CCN(c4ccccn4)CC3)nc2)c2nccnc2c1 [Example 23] ?
Output: 9.45

Input: What remaining activity at 10 µM value was documented for this molecule, CC(C)Nc1cc(-c2ccc(N3CC(Oc4cccc(F)c4)C3)nc2)c2nccnc2c1 [Example 5] ?
Output: 6.14

Input: What remaining activity at 10 µM value was documented for this molecule, CCCNc1cc(-c2ccc(N3CC[C@H](NC(=O)c4ccccc4F)C3)nc2)c2nccnc2c1 [Example 13] ?
Output: -0.31

Input: What remaining activity at 10 µM value was documented for this molecule, Nc1cc(-c2cnc(N3CC[C@H](NC(=O)c4ccccc4F)C3)nc2)c2nccnc2c1 [Example 30] ?
Output: 0.98

Input: What remaining activity at 10 µM value was documented for this molecule, CCNc1cc(-c2ccc(N3CC(Oc4cccc(F)c4)C3)nc2)c2nccnc2c1 [Example 3] ?
Output: -0.51

* * *

biological target: RET(G810R) (Homo sapiens, UniProt P07949, G810R); construct: purchased Reaction Biology Corp; assay: Kinase panel inhibition, radiolabeled [γ-33P] ATP (Reaction Biology Corp); assay type: biochemical; settings: compound at 1 uM; ATP 10 µM; read-out: % Enzyme Activity (relative to DMSO controls) G810R
Sequence (P07949 29-1114 G810R): as the sequence (P07949 29-1114 G810S/M918T) above, with S782R, T890M counted along it
# key: entry, value: remaining activity at 1 µM
Provide the reading as a plain figure in %.

Input: What remaining activity at 1 µM value was documented for this compound, O=C(Nc1cc(Br)c2nccnc2c1)c1ccco1 [Intermediate Compound 11] ?
Output: 97.6

Input: What remaining activity at 1 µM value was documented for this compound, O=C(Nc1cc(-c2ccc(F)nc2)c2nccnc2c1)c1ccco1 [Intermediate Compound 13] ?
Output: 102

Input: What remaining activity at 1 µM value was documented for this compound, O=[N+]([O-])c1cc(-c2ccc(F)nc2)c2nccnc2c1 [Intermediate Compound 15] ?
Output: 99.5

Input: What remaining activity at 1 µM value was documented for this compound, CCNc1cc(-c2ccc(N3CC(Oc4cccc(F)c4)C3)nc2)c2nccnc2c1 ?
Output: 11.4

Input: What remaining activity at 1 µM value was documented for this compound, O=[N+]([O-])c1cc(-c2ccc(N3CC(Oc4cccc(F)c4)C3)nc2)c2nccnc2c1 ?
Output: 101

Input: What remaining activity at 1 µM value was documented for this compound, Nc1cc(-c2ccc(N3CC(Oc4cccc(F)c4)C3)nc2)c2nccnc2c1 ?
Output: 24.5

Input: What remaining activity at 1 µM value was documented for this compound, CCN(CC)c1cc(-c2ccc(N3CC(Oc4cccc(F)c4)C3)nc2)c2nccnc2c1 ?
Output: 105

Input: What remaining activity at 1 µM value was documented for this compound, CCNc1cc(Br)c2nccnc2c1 [Intermediate Compound 18, 8-Bromo-N-ethylquinoxalin-6-amine] ?
Output: 104

Others:
Input: What remaining activity at 1 µM value was documented for this compound, CCNc1cc(-c2ccc(F)nc2)c2nccnc2c1 [Intermediate Compound 6] ?
Output: 97.9
